B1: HDAC6 (parent)
chain: QEGLLDRCVSFQARFAEKEELMLV

- Variants of: B1
- Protocol text: protein stability index of a GFP-peptide fusion (GPS, HEK-293T) (PSI 1-6); higher = more stable;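 note: lentivirally expressed fusions sorted by FACS into six bins by GFP to DsRed ratio, PSI derived from sequencing read proportions per bin multiplied by bin number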
- Test parameters: c terminus: a fixed tail appended
Endpoint name: protein stability index

In [3]: df
Out[3]:
    variant_annotation  experimental_value
 0                S10C                1.77
 1                 Q1R                1.63
 2                E17H                1.49
 3                F11M                2.17
 4                M22D                4.03
 5                K18W                 2.1
 6                L21R                3.06
 7                R14D                2.54
 8                E19R                1.84
 9                 G3C                 2.3
10                 E2L                1.69
11                V24C                2.63
12                 G3H                2.12
13                 R7P                2.56
14                E17T                1.46
15                E17Y                1.67
16                M22L                2.03
17                 C8H                1.93
18                 V9D                2.29
19                K18S                1.75
20                E19Q                1.67
21                 R7S                3.14

The origin of these recorded values is the supplement of paper PMC10567573.
